# tested_on: SMYD2 (Homo sapiens)
# Construct: Full length SMYD2 (NP 064582.2) was cloned; His6 (N, cleaved yes); FLAG (N); made in house; host or cells: Sf9 insect cells
# Sequence (Q9NRG4 whole entry): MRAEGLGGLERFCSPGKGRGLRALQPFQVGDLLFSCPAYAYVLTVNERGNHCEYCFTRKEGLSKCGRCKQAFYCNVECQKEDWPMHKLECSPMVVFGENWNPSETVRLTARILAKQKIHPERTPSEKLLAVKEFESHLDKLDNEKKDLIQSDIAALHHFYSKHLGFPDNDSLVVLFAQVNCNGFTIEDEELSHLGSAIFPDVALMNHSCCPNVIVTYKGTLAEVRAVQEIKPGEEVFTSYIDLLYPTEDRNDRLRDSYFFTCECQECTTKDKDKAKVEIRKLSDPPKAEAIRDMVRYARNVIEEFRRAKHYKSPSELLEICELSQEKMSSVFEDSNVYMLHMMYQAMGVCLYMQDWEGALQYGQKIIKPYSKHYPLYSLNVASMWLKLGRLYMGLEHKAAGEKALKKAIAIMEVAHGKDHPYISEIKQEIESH
# test_name: SMYD2 Biochemical Assay (3H-SAM, biotinylated peptide substrate, Flashplate)
# recorded_conditions: IC50 values are an average of n = 1 to n = 50; read-out: SMYD2 Biochem IC50 (μM)*
measured_metric: IC50

Field: example entries. Status: answers known.
# compound, tested_on, measured_metric, result
measured = [
    ("Cc1nn(C)cc1CN1C[C@@H](C)[C@H](NC(=O)c2cc(C3CC3)on2)C1 (racemic)", "SMYD2 (Homo sapiens)", "IC50", "> 50 µM"),
    ("C[C@H]1CN(CC(=O)N2CCNCC2)C[C@H]1NC(=O)c1cc(C2CC2)on1 (racemic)", "SMYD2 (Homo sapiens)", "IC50", "> 50 µM"),
    ("C[C@H]1CN(Cc2c(Cl)cccc2Cl)C[C@H]1NC(=O)c1cc(C2CC2)on1 (racemic)", "SMYD2 (Homo sapiens)", "IC50", "> 50 µM"),
]

Problem: Could you tell me which IC50 is on file for CC(C)N1C[C@@H](C)[C@H](NC(=O)c2cc(C3CC3)on2)C1 (racemic) ?
Result: 40.3 µM

Problem: Could you tell me which IC50 is on file for COc1cccc(CN2C[C@H](C)[C@H](NC(=O)c3cc(C4CC4)on3)C2)c1OC (racemic) ?
Result: 2.27 µM

Problem: Could you tell me which IC50 is on file for CC[C@H]1CN(C)C[C@H]1NC(=O)c1cc(C2CC2)on1 (racemic) ?
Result: 18.1 µM

---

Form field: IC50 (one value per entry).
# tested_on: SMYD2 (Homo sapiens)
# Construct: Full length SMYD2 (NP 064582.2) was cloned; His6 (N, cleaved yes); FLAG (N); made in house; host or cells: Sf9 insect cells
# test_name: SMYD2 Biochemical Assay (3H-SAM, biotinylated peptide substrate, Flashplate)
# recorded_conditions: Table 1; average of n = 1 to n = 50; read-out: SMYD2 Biochem IC50

# molecule, IC50
measured = [
    ("CN1C(=O)CC(NC(=O)c2cc(C3CC3)on2)C1c1ccc(F)cc1 (stereo not drawn)", "> 50 µM"),
    ("O=C(NC1CCN(C2CC2)C1c1ccc(F)c(F)c1)c1cc(C2CC2)on1 (stereo not drawn)", "> 50 µM"),
]

Problem: Could you tell me which IC50 is on file for CCc1cc(C(=O)N[C@H]2CN(C3CC3)C[C@@H]2C)no1 (racemic) ?
Result: > 50 µM

Problem: Could you tell me which IC50 is on file for "NCCCS(=O)(=O)N1CC[C@H](NC(=O)c2cc(C3CC3)on2)C1" ?
Result: > 50 µM

Problem: Could you tell me which IC50 is on file for C[C@H]1CN(C2CC2)C[C@H]1NC(=O)c1cc(C2CC2)on1 (racemic) ?
Result: 19.2 µM

Problem: Could you tell me which IC50 is on file for C[C@@H]1CN(C)C[C@H]1NC(=O)c1cc(C2CC2)on1 (racemic) ?
Result: 33.6 µM

Problem: Could you tell me which IC50 is on file for O=C(N[C@@H]1CN(C2CC2)C[C@H]1O)c1cc(C2CC2)on1 (racemic) ?
Result: > 50 µM

Problem: Could you tell me which IC50 is on file for "NCCCS(=O)(=O)N1CC[C@@H](NC(=O)c2cc(C3CC3)on2)C1" ?
Result: > 50 µM

Problem: Could you tell me which IC50 is on file for CN1CCC(NC(=O)c2cc(C3CC3)on2)C1c1ccc(F)c(F)c1 (stereo not drawn) ?
Result: > 50 µM

Problem: Could you tell me which IC50 is on file for C[C@H]1CN(C2CC2)C[C@@H]1NC(=O)c1cc(C2CCCC2)on1 (racemic) ?
Result: > 50 µM

Problem: Could you tell me which IC50 is on file for "N[C@H]1CC[C@H](C(=O)N2CC[C@@H](NC(=O)c3cc(C4CC4)on3)C2)CC1" ?
Result: > 50 µM

Problem: Could you tell me which IC50 is on file for CN1C[C@H](NC(=O)c2cc(C3CC3)on2)[C@@H](c2ccccc2)C1 (racemic) ?
Result: > 50 µM

Problem: Could you tell me which IC50 is on file for O=C(NC1CCN(c2ccccc2)C1=O)c1cc(C2CC2)on1 (stereo not drawn) ?
Result: > 50 µM

Problem: Could you tell me which IC50 is on file for "CC(C)N1C[C@@H](C)[C@H](NC(=O)c2cc(C3CC3)on2)C1" ?
Result: 18.2 µM

Problem: Could you tell me which IC50 is on file for CN1CCC(NC(=O)c2cc(C3CC3)on2)C1c1ccccc1 (stereo not drawn) ?
Result: > 50 µM

Problem: Could you tell me which IC50 is on file for CCc1cc(C(=O)N[C@@H]2CN(C3CC3)C[C@@H]2C)no1 (racemic) ?
Result: 9.4 µM

Problem: Could you tell me which IC50 is on file for COc1cccc(C2C(NC(=O)c3cc(C4CC4)on3)CCN2C2CC2)c1 (stereo not drawn) ?
Result: > 50 µM

Problem: Could you tell me which IC50 is on file for Cn1ccc(N2CCC(NC(=O)c3cc(C4CC4)on3)C2=O)n1 (stereo not drawn) ?
Result: > 50 µM
